Reported IC50 values are given for each entry in this list.
- Assayed System: NaV1.8 (Homo sapiens, UniProt Q9Y5Y9)
- Sequence (Q9Y5Y9 whole entry): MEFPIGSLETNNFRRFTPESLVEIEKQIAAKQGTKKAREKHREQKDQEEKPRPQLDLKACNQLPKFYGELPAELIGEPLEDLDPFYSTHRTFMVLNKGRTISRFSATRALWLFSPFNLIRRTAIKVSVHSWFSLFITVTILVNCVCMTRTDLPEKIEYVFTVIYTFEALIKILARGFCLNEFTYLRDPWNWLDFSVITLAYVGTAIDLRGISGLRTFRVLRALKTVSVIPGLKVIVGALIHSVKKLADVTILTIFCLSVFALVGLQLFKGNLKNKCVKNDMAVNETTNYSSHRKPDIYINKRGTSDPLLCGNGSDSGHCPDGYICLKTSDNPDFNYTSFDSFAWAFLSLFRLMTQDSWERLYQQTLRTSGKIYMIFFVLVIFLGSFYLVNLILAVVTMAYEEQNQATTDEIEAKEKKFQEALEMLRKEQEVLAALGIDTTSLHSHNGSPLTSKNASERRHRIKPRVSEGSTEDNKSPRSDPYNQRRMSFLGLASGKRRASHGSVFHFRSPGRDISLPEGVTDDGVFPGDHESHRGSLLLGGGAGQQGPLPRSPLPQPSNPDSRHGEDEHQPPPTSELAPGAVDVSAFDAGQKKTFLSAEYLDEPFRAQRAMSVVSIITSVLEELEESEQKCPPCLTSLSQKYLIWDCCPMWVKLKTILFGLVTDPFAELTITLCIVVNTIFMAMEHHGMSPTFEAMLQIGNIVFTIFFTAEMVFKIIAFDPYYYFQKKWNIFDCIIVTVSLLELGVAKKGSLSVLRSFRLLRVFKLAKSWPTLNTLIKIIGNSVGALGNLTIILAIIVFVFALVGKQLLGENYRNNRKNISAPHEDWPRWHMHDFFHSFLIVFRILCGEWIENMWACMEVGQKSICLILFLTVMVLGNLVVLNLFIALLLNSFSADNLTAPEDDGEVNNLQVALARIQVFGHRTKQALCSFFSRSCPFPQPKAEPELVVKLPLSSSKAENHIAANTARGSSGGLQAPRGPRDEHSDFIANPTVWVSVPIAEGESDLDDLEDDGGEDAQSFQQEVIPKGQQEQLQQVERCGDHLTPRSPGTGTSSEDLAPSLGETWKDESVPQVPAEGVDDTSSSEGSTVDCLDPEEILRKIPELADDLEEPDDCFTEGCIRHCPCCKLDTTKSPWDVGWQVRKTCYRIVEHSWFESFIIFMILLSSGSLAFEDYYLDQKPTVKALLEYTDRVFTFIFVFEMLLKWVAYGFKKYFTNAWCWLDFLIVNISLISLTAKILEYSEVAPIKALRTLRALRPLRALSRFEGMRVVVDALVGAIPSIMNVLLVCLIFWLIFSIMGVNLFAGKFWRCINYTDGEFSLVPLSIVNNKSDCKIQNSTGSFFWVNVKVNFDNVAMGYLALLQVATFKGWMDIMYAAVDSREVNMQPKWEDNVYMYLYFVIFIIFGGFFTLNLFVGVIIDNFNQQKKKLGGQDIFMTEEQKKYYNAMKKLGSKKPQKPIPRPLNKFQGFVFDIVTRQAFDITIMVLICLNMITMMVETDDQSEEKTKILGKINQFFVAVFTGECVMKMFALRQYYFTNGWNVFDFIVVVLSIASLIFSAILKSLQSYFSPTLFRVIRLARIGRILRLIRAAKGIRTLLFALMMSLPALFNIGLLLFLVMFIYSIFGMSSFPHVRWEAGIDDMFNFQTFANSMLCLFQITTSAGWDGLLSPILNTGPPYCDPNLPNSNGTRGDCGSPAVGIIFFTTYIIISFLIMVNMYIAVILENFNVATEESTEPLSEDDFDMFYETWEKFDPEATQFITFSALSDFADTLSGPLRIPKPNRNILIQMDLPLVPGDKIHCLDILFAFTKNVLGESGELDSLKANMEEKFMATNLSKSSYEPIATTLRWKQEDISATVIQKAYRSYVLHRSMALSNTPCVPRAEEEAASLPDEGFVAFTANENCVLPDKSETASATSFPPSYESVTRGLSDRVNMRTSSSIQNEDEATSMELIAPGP
- Assay Info: VIPR optical membrane potential assay, NaV1.8 (other subtypes in an analogous mode)
- Type: cell-based
- Measurement Conditions: Table 9, NaV 1.8 receptors

compound=CC(C)N(Cc1ccccc1)C(=O)c1cnc(N2CCOCC2)nc1-c1cc(F)cc(F)c1 recorded_result="2 to 10 µM"
compound=O=C(NC1CCCC1)c1cnc(N2CCOCC2)nc1-c1ccccc1F recorded_result="> 10 µM"
compound=CC(C)N(C(=O)c1cnc(N2CCCCC2)nc1-c1ccccc1Cl)c1ccccc1 recorded_result="> 10 µM"

Problem: Form field: IC50 recorded for O=C(c1cnc(N2CCOCC2)nc1-c1ccccc1F)N1CCCC(c2ccc(F)cc2)C1 (centres unmarked) with NaV1.8 (Homo sapiens, UniProt Q9Y5Y9) (enter value)
Result: > 10 µM

Problem: Lookup CC(C)N(Cc1ccccc1)C(=O)c1cnc(N2CCSCC2)nc1-c1ccccc1F
Result: 2 to 10 µM

Problem: Now try CC(C)N(Cc1ccccc1)C(=O)c1cnc(N2CCOCC2)nc1-c1cccc(/C=C/C(=O)O)c1 .
Result: > 10 µM

Problem: Check CCN(CCOC)c1ncc(C(=O)N(Cc2ccccc2)C(C)C)c(-c2ccccc2F)n1 too.
Result: 2 to 10 µM

Problem: Consider next the compound Cc1cccc(CN(C(=O)c2c(C)nc(N3CCOCC3)nc2-c2ccccc2F)C2CC2)c1 in the same way.
Result: > 10 µM

Problem: Entry N=C(N)NCCCNC(=O)c1cnc(N2CCC3CCCCC3C2)nc1-c1ccccc1F (centres unmarked) please
Result: > 10 µM

Problem: Can you check Cc1nc(N2CCOCC2)nc(-c2ccccc2F)c1C(=O)N(Cc1ccc(C(C)(C)C)cc1)C(C)C next?
Result: > 10 µM

Problem: And the next one, CCC(COC)N(Cc1ccccc1)C(=O)c1cnc(N2CCSCC2)nc1-c1ccccc1F (centres unmarked) ?
Result: > 10 µM

Problem: Query CC(C)N(Cc1ccc(N2CCCC2)cc1)C(=O)c1cnc(N2CCCCC2)nc1-c1ccccc1Cl next
Result: > 10 µM

Problem: Consider next the compound CC(C)N(C(=O)c1cnc(N2CCCCC2)nc1-c1ccccc1F)c1cccc2ccccc12 in the same way.
Result: > 10 µM

Problem: Next: O=C(c1cnc(N2CCOCC2)nc1-c1ccccc1F)N(Cc1cccc(C(F)(F)F)c1)C1CC1
Result: > 10 µM

Problem: Next up: CC(C)N(Cc1ccc2c(c1)OCO2)C(=O)c1cnc(N2CCCCC2)nc1-c1ccccc1Cl
Result: 2 to 10 µM

Problem: What do you get for CC(C)N(Cc1ccccc1)C(=O)c1cnc(N2CCOCC2)nc1-c1ccc(F)c(F)c1 ?
Result: > 10 µM
